# Target: T1, TMEV 2A (Theiler's murine encephalitis virus …, UniProt P08545 923-1055)
# T1 sequence: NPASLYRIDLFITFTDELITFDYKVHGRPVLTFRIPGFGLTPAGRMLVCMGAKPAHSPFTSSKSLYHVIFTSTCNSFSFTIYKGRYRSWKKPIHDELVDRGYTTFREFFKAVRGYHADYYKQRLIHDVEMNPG
# Method: EMSA; EMSA: 10 mM Tris-HCl pH 7.4, ~140 mM NaCl, 2 mM Mg acetate, 1 mM DTT, 5% glycerol, 50 nM RNA, 37 C; MST: 20 mM Tris-HCl pH 7.4, 400 mM NaCl, 1 mM MgCl2, 1 mM DTT, 0.05% Tween-20, 0.1 mg/ml tRNA, 22 C; smFRET: 10 mM Tris-HCl pH 7.4, 150 mM NaCl, 1 mM MgCl2, 1 mM DTT, 0.1 mg/ml BSA, ambient
# Details: protein: recombinant; tags: His6-MBP, TEV-cleaved/removed; label: 5' Cy5 or AzDye647; stem-loop / pseudoknot
Outcome measure: Kd

Task item: Which measured Kd value corresponds to CAAGGUGCCCACGAUACUAAAUCCCAUCGUGGCC (structured_RNA) [Stem 2 swap] ?
Reply: ~313 nM
